Molecular target: MALT-1 (Isoform 1) (Homo sapiens, UniProt Q9UDY8)
Construct: using recombinant MALT-1 (Isoform 1, aa-840) generated in house; made in house
Sequence (Q9UDY8 whole entry, canonical isoform): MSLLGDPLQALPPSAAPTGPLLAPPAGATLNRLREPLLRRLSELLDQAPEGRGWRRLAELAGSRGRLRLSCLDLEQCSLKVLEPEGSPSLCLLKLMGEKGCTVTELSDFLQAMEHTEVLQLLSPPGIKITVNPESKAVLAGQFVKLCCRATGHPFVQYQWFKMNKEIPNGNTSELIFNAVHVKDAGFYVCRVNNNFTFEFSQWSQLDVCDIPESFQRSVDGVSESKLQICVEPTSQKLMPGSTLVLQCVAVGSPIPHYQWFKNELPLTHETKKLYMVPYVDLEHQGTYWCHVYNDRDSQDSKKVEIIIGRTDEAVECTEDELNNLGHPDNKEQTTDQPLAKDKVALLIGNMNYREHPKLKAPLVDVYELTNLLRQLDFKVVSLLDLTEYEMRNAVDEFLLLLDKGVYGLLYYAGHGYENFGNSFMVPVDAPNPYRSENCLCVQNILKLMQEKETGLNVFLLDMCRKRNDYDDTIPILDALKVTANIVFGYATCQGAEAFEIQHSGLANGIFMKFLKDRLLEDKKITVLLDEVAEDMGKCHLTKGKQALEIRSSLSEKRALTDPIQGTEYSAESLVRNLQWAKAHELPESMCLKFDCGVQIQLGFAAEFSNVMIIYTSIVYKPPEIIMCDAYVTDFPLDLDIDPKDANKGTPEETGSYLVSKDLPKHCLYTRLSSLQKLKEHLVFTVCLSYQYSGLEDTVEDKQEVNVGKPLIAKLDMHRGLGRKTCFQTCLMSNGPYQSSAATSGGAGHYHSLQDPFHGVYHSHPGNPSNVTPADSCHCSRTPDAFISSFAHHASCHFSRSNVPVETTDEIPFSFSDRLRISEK
Experiment: MALT-1 (Isoform 1) enzyme fluorescent biochemical assay
Settings: dose-response, sigmoidal curve fit; reported as groups A, B, C
# reported IC50; entries follow

# Molecule, Recorded Value
measured = [
    ("O=C(Nc1ccnc(C(F)(F)F)c1)c1cnn(Cc2cccc(F)c2)c1C(F)(F)F", "> 1000 nM"),
]

IN: What IC50 value was documented for this molecule, CC(c1cccc(Cl)c1)n1ncc(C(=O)Nc2cnc(-n3nccn3)c(Cl)c2)c1C(F)(F)F (stereo not drawn) ?
OUT: 251 to 1000 nM

IN: What IC50 value was documented for this molecule, CC(c1cccc(C#N)c1)n1ncc(C(=O)Nc2cnc(-n3nccn3)c(C#N)c2)c1C(F)(F)F (stereo not drawn) ?
OUT: < 250 nM

IN: What IC50 value was documented for this molecule, COc1ncc(NC(=O)c2cnn(Cc3cccc(F)c3Cl)c2C(F)(F)F)cc1Cl ?
OUT: 251 to 1000 nM

IN: What IC50 value was documented for this molecule, N#Cc1cc(NC(=O)c2cnn(Cc3ccccc3Cl)c2C(F)(F)F)cnc1-n1nccn1 ?
OUT: > 1000 nM

IN: What IC50 value was documented for this molecule, Cc1c(F)cccc1Cn1ncc(C(=O)Nc2cnc(-n3nccn3)c(C(F)(F)F)c2)c1C(F)(F)F ?
OUT: < 250 nM

IN: What IC50 value was documented for this molecule, Cc1ccc(F)cc1Cn1ncc(C(=O)Nc2cnc(-n3nccn3)c(C#N)c2)c1C(F)(F)F ?
OUT: 251 to 1000 nM

IN: What IC50 value was documented for this molecule, CCC(c1cccc(F)c1)n1ncc(C(=O)Nc2cnc(-n3nccn3)c(C#N)c2)c1C(F)(F)F (stereo not drawn) ?
OUT: 251 to 1000 nM

IN: What IC50 value was documented for this molecule, CC(c1ccccc1)n1ncc(C(=O)Nc2cnc(-n3nccn3)c(Cl)c2)c1C(F)(F)F (racemic) [Compound 5] ?
OUT: 251 to 1000 nM

IN: What IC50 value was documented for this molecule, O=C(Nc1cc(C(F)(F)F)cnn1)c1cnn(Cc2cccc(F)c2Cl)c1C(F)(F)F ?
OUT: > 1000 nM

IN: What IC50 value was documented for this molecule, O=C(Nc1cnnc(C(F)(F)F)c1)c1cnn(Cc2cccc(F)c2Cl)c1C(F)(F)F ?
OUT: 251 to 1000 nM

IN: What IC50 value was documented for this molecule, Cc1c(F)cccc1Cn1ncc(C(=O)Nc2cnc(-n3nccn3)c(F)c2)c1C(F)(F)F ?
OUT: 251 to 1000 nM

IN: What IC50 value was documented for this molecule, CC(c1cccc(F)c1)n1ncc(C(=O)Nc2cnc(-n3nccn3)c(Cl)c2)c1C(F)(F)F (single isomer, unassigned) [Compound 4a] ?
OUT: > 1000 nM

IN: What IC50 value was documented for this molecule, CC(c1cccc(F)c1)n1ncc(C(=O)Nc2cnc(-n3nccn3)c(Cl)c2)c1C(F)(F)F (racemic) [Compound 4] ?
OUT: 251 to 1000 nM

IN: What IC50 value was documented for this molecule, O=C(Nc1cnc(C(=O)N2CCCC2)c(Cl)c1)c1cnn(Cc2cccc(F)c2Cl)c1C(F)(F)F ?
OUT: > 1000 nM

---

Target: MALT-1 (Isoform 1) (Homo sapiens, UniProt Q9UDY8)
Construct: using recombinant MALT-1 (Isoform 1, aa-840) generated in house
Assay: MALT-1 (Isoform 1) enzyme fluorescent biochemical assay
Conditions: dose-response, sigmoidal curve fit; reported as groups A, B, C
Procedure: The potency of compounds to inhibit MALT-1 (Isoform 1) enzyme was tested in a Fluorescent assay using recombinant MALT-1 (Isoform 1, aa-840) generated in house. […] After 240 min incubation, fluorescence emission of the samples at 460 nm was measured at an excitation of 355 nm. The percent inhibition was calculated using the following formula: (Control OD—(Sample OD/Control OD))×100. […] ND represents Not Determined.
pIC50: −log10 of the molar value.
Readout Type: pIC50

# Compound, Recorded Value
records = [
    ("N#Cc1cc(NC(=O)c2cnn(Cc3cccc(F)c3C(F)(F)F)c2C(F)(F)F)cnc1-n1nccn1", "> 6.60"),
    ("O=C(Nc1cc(C(F)(F)F)ccn1)c1cnn(Cc2cccc(F)c2Cl)c1C(F)(F)F", "< 6.00"),
    ("N#Cc1cc(NC(=O)c2cnn(Cc3cccc(F)c3F)c2C(F)(F)F)cnc1-n1nccn1", "> 6.60"),
    ("CC(c1ccccc1)n1ncc(C(=O)Nc2cnc(-n3nccn3)c(C#N)c2)c1C(F)(F)F (single isomer, unassigned) [Compound 2b]", "6.00 to 6.60"),
    ("N#Cc1cc(NC(=O)c2cnn(Cc3cccc(F)c3)c2C2CC2)cnc1-n1nccn1", "< 6.00"),
]

IN: What pIC50 value was documented for this compound, Cc1c(F)cccc1Cn1ncc(C(=O)Nc2cnc(-n3nccn3)c(C#N)c2)c1C(F)(F)F ?
OUT: > 6.60

IN: What pIC50 value was documented for this compound, CC(c1cccc(F)c1)n1ncc(C(=O)Nc2cnc(-n3nccn3)c(C#N)c2)c1C(F)(F)F (single isomer, unassigned) [Compound 3a] ?
OUT: 6.00 to 6.60
